Please provide measured inhibition for the entries that follow.
# Experimental Target: Microphthalmia-associated transcription factor (Homo sapiens)
# Measurement Protocol: MITF inhibitors, retest of hits, confirmation, biochemical, AlphaScreen, triplicate (AID 1259372)
# Assay Context: AlphaScreen MITF homodimerization, biotin/His-MITF beads; at 2.6 µM; stronger effect = higher value
Screen size: about 4,700 compounds; about 760 (16%) were called active. A selection follows.
Answer with a number only, understood to be in %.

Task: Item: C=CCc1cc(C)ccc1OCCCn1ccnc1 Test system: Microphthalmia-associated transcription factor (Homo sapiens) Read-out: inhibition Value: ?
Result: -1.07

Task: Okay, and COc1ccc(Cn2nnc(C(=O)Nc3cccc(Cl)c3)c2N)cc1 ?
Result: 8.84

Task: Okay, and COc1ccccc1CN1CC(C)OC(C)C1 (centres undefined) ?
Result: -2.69

Task: Okay, and CSc1ccc(CN2CCN(Cc3cccc(Oc4ccccc4)c3)CC2)cc1 ?
Result: 6.75

Task: Okay, and O=C(c1cccc(Cl)c1)N1CCN(Cc2cccnc2)CC1 ?
Result: 16.8

Task: Okay, and CC1CCC2C(=O)N(c3ccc(I)cc3)C(=O)C2C1 (centres undefined) ?
Result: -5.9

Task: Okay, and COc1cc(CN2CCN(Cc3cc(OC)c(OC)cc3OC)CC2)cc(OC)c1 ?
Result: 7.67

Task: Okay, and CCN(CCN(C)C)Cc1c(Cl)cccc1Cl ?
Result: -9.82

Task: Okay, and O=C(c1ccc2c(c1)C(=O)N(Cc1cccnc1)C2=O)c1ccc2c(c1)C(=O)N(Cc1cccnc1)C2=O ?
Result: 51.2

Task: Okay, and CCc1ccc(OCCCCn2ccnc2)cc1 ?
Result: -7.12

Task: Okay, and COc1cc(N2CCOCC2)ccc1Nc1cc(Nc2ccccc2-n2cccn2)c(C(F)(F)F)cn1 ?
Result: 31.5

Task: Okay, and NC(=O)COC(=O)/C=C/c1ccc(I)o1 ?
Result: 57.8

Task: Okay, and C[C@@H](OCc1ccccc1)[C@@H]1NC(=O)[C@H]2CN(C(=O)Nc3cccc(F)c3)CCN2C1=O ?
Result: 68.9

Task: Okay, and c1cncc(CCNc2ccc3ncc(-c4cc5ccccc5o4)n3n2)c1 ?
Result: 2.68
